- assayed-target: HDAC3 (Homo sapiens)
- Construct: purchased Reaction Biology Corporation (assay run by the CRO)
- assay-comment: HDAC3 inhibition, full IC50 measurement (Reaction Biology; fluorogenic p53 peptide RHKK(Ac)AMC)
- Format: biochemical
- assay-context: Conc. 1.00E-05 M, t2
Peptide text beside a SMILES is read from it.
I'd appreciate it if you could supply HDAC3 activity raw data (signal) values for the items below.
Answers are plain numbers.

| compound | HDAC3 activity raw data (signal) |
| --- | --- |
| NCCCC[C@@H]1NC(=O)[C@@H]2CCCN2C(=O)[C@H](CC(N)=O)NC(=O)[C@H](CCCCCS)NC(=O)CNC(=O)[C@H](Cc2c[nH]c3ccccc23)NC(=O)[C@@H](CCCCN)NC(=O)[C@H](CCC(N)=O)NC1=O [des1.1.0, SHA-Asn-Pro-Lys-Gln-dLys-Trp-Gly] (HELM PEPTIDE1{G.[O=C([C@H](CCCCCS)N[*:1])[*:2]].N.P.K.Q.[dK].W}$PEPTIDE1,PEPTIDE1,1:R1-8:R2$$$V2.0) | 9474 |

Proceeding to the next compound to report its HDAC3 activity raw data (signal).
Reported HDAC3 activity raw data (signal) for CC(C)[C@@H]1NC(=O)[C@H](CCCNC(=N)N)NC(=O)[C@@H](CC(=O)O)NC(=O)[C@H](CO)NC(=O)[C@@H](CO)NC(=O)[C@@H](CCC(=O)O)NC(=O)[C@H](Cc2ccc(O)cc2)NC(=O)[C@H](CCCCCS)NC1=O [des4.2.0, SHA-Tyr-dGlu-dSer-Ser-dAsp-Arg-Val] (HELM PEPTIDE1{R.V.[O=C([C@H](CCCCCS)N[*:1])[*:2]].Y.[dE].[dS].S.[dD]}$PEPTIDE1,PEPTIDE1,1:R1-8:R2$$$V2.0) was 22359

====

- assayed-target: HDAC3 (Homo sapiens, UniProt O15379)
- Construct: purchased Reaction Biology Corporation (assay run by the CRO)
- Sequence (O15379 whole entry): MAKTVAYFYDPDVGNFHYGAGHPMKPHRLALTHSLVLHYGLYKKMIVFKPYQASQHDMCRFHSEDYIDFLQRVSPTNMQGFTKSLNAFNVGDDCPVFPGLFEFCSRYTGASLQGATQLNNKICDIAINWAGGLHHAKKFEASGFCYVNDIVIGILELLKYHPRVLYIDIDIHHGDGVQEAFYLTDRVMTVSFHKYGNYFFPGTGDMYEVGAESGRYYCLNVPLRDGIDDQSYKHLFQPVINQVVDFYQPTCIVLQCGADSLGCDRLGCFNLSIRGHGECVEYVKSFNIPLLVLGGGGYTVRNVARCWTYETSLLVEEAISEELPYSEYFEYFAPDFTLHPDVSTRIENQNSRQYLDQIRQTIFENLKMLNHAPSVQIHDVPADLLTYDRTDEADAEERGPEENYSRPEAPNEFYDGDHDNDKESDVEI
- Sequence (Q9Y618 395-489 partner limits assumed): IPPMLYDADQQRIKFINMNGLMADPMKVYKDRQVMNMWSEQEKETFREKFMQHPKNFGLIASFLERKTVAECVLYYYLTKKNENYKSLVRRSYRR
- assay-comment: HDAC3 inhibition, full IC50 measurement (Reaction Biology; fluorogenic p53 peptide RHKK(Ac)AMC)
- Assay type: biochemical
- assay-context: Conc. 1.52E-09 M, t1
Peptide text beside a SMILES is read from it.
result-type: HDAC3 activity raw data (signal)
One number for each entry.

| compound | assayed-target | recorded-value |
| --- | --- | --- |
| C[C@H](O)[C@H]1NC(=O)[C@H](Cc2c[nH]c3ccccc23)NC(=O)[C@H](CCCCCS)NC(=O)[C@H](CCCCN)NC(=O)[C@@H](CC(=O)O)NC(=O)[C@@H](CCCCN)NC(=O)[C@@H](CO)NC(=O)[C@H](CC(N)=O)NC(=O)[C@H](CC(=O)O)NC1=O [des2.1.0, SHA-Trp-dThr-Asp-Asn-dSer-dLys-dAsp-Lys] (HELM PEPTIDE1{D.N.[dS].[dK].[dD].K.[O=C([C@H](CCCCCS)N[*:1])[*:2]].W.[dT]}$PEPTIDE1,PEPTIDE1,1:R1-9:R2$$$V2.0) | HDAC3 (Homo sapiens, UniProt O15379) | 1368847 |

Here's the next entry for you.
Fill in: HDAC3 (Homo sapiens, UniProt O15379) HDAC3 activity raw data (signal) for N=C(N)NCCC[C@@H]1NC(=O)[C@@H](CCCNC(=N)N)NC(=O)[C@H]2CCCN2C(=O)[C@@H](Cc2c[nH]cn2)NC(=O)[C@H](Cc2ccc(O)cc2)NC(=O)[C@H](CCCCCS)NC(=O)[C@H](CCc2ccccc2)NC(=O)[C@@H](CO)NC(=O)[C@H](CC(=O)O)NC1=O [des3.3.1, SHA-Tyr-dHis-dPro-dArg-Arg-Asp-dSer-C27] (HELM PEPTIDE1{[O=C([C@H](CCCCCS)N[*:1])[*:2]].Y.[dH].[dP].[dR].R.D.[dS].[O=C([C@H](CCc1ccccc1)N[*:1])[*:2]]}$PEPTIDE1,PEPTIDE1,1:R1-9:R2$$$V2.0) = 143913
